system: MCF7 breast; assay: NCI tumour cell line growth inhibition, 48 h
This section presents compounds with their documented TGI values.
readout: TGI

compound	readout	reported-value
COc1cc(Cc2cnc(/N=C3\C(=O)N(CN4CCN(c5c(F)cc6c(=O)c(C(=O)O)cn(C7CC7)c6c5OC)CC4C)c4ccc(F)cc43)nc2N)cc(OC)c1OC (centres undefined)	TGI	52.8 µM
O=C1OCC(O)=C1C(c1ccc(Cl)cc1)c1cc2c(cc1O)OCO2 (centres undefined)	TGI	> 100 µM
Cc1nc(C(N)=S)sc1/C(CC(=O)C(=O)Nc1cccc2ccc(O)cc12)=N\NC(=O)c1ccncc1	TGI	> 100 µM
Clc1ccc(/C=C/c2nc3ccccc3s2)cc1Cl	TGI	> 100 µM
O=S1(=O)NC(=NCc2c[nH]c3ccccc23)N(c2ccccc2)c2ccncc21	TGI	> 100 µM
CC/C=C\CCC/C=C1/C(=O)C=C[C@@H]1C/C=C\CCCC(=O)OC	TGI	13.9 µM
c1ccc2cc(-c3cc(-c4cc(-c5ccc6ccccc6c5)on4)no3)ccc2c1	TGI	> 100 µM
O=c1[nH]cc(N=Cc2cc(Cl)cc(Cl)c2O)c(=O)[nH]1	TGI	> 100 µM
COC1=CC(c2ccc[nH]2)=N/C1=C\c1[nH]c(C)c(C(=O)OC(C)C)c1C	TGI	1.9 µM

====

system: MDA-MB-435
Where a SMILES comes first, the peptide text is derived from it. [ ]: non-standard residue; d: D form. The star is where a group is joined. ξ: configuration not given here. X6 = FC(F)(F)c1cc(NC(=S)*)cc(C(F)(F)F)c1; ξF = NC(Cc1ccccc1)C(=O)O
Classes used: class 1 = active, class 0 = inactive

compound	measurement-target	label-value
CC(C)CCC[C@@H](C)[C@H]1CC[C@H]2[C@@H]3CC=C4C[C@@H](C(C(=O)O)C(=O)O)CC[C@]4(C)[C@H]3CC[C@]12C	MDA-MB-435	class 1
COC(=O)[C@@H](NC(=O)CNC(=O)[C@H]1CCCN1C(=O)C(Cc1ccccc1)NC(=S)Nc1cc(C(F)(F)F)cc(C(F)(F)F)c1)C(C)C (stereo partly drawn) (X6-[ξF][dP]GV-OMe)	MDA-MB-435	class 0
Cc1ccc(C(=O)/C(=C/c2ccc([N+](=O)[O-])cc2)SCc2ccc(Cl)cc2)cc1	MDA-MB-435	class 0
Cn1cc(C2=C(c3cn(C)c4ncccc34)C(=O)NC2=O)c2ccccc21	MDA-MB-435	class 0
CCCCOC(=O)C1OC(O[C@H]2CCC3(C)C(CCC4(C)C3CC=C3C5CC(C)(C)CCC5(C(=O)O)CC[C@]34C)C2(C)C)C(OC2OC(CO)C(O)C(O)C2O)C(OC2OC(CO)C(O)C(O)C2O)C1O (stereo partly drawn)	MDA-MB-435	class 0
NC(Cc1c[nH]c2c(O)cccc12)C(=O)O (stereo not drawn)	MDA-MB-435	class 0
O=C(Nc1ccccc1OC(F)(F)F)Nc1n[nH]c2ccccc12	MDA-MB-435	class 0
CCC(CO)Nc1nc2ccc(Cl)cc2c2ccccc12 (stereo not drawn)	MDA-MB-435	class 0

====

TGI: recorded values
system: T-47D breast; experiment: NCI tumour cell line growth inhibition, 48 h
readout: TGI

> print(dat)
                                   compound  readout  reported.value
1   C[C@@]12C[C@@H](c3ccccc3O1)N1CCCCSC1=N2      TGI        > 100 µM
2           Cc1cccc(/C=N/NC(=S)Nc2ccccc2)n1      TGI       > 29.2 µM
3  O=C(Nc1ccccc1)NS(=O)(=O)c1ccc(-n2nc3c(c2-c2cccs2)Cc2ccccc2-3)cc1      TGI        > 100 µM
4  O=c1[nH][nH]c(=O)n1Cc1ccccc1Cn1c(=O)[nH][nH]c1=O      TGI        > 100 µM
5  NC(=O)C(c1ccccc1)N1OC2C(=O)N(c3ccccc3)C(=O)C2C1c1c2ccccc2c(Cl)c2ccccc12 (configuration not stated)      TGI        > 100 µM
6  O=C(O)CSc1ccc([N+](=O)[O-])cc1[N+](=O)[O-]      TGI        > 100 µM
7  O=c1[nH]cc(N=Cc2cc(Cl)cc(Cl)c2O)c(=O)[nH]1      TGI         66.2 µM

====

tested on: K-562 leukemia; assay: NCI tumour cell line growth inhibition, 48 h
Where a SMILES comes first, the peptide text is derived from it. [ ]: non-standard residue; d: D form. The star is where a group is joined. ξ: configuration not given here. X6 = FC(F)(F)c1cc(NC(=S)*)cc(C(F)(F)F)c1; ξF = NC(Cc1ccccc1)C(=O)O
readout: TGI

compound	reported-value
Cc1ccsc1/C=N/Nc1ncccn1	> 100 µM
CCN(CC)CCC(=O)Nc1ccc2c(c1)C(=O)c1ccc(NC(=O)CCN(CC)CC)cc1C2=O	14.8 µM
COc1cc(-c2nn(-c3ccc(NC(=O)c4ccc(Cl)c(C(F)(F)F)c4)cc3)cc2-c2ccncc2)ccc1Cl	5.67 µM
CCOC(=O)C(NC(C)=O)(Nc1ccc(F)cc1)C(F)(F)F (stereo not given)	> 100 µM
O=C1C2C(C(=O)N1OS(=O)(=O)c1ccccc1)N(Cc1ccccc1)C(=O)N2Cc1ccccc1 (stereo not given)	> 100 µM
O=C(Cc1cccs1)N[C@@H]1C(=O)N2C(C(=O)OC(c3ccccc3)c3ccccc3)=C(CO)CS[C@H]12	> 100 µM
C[n+]1c2ccccc2c(/C=N\NS(=O)(=O)c2ccc(O)c(C(=O)O)c2)c2ccccc21	> 100 µM
COc1cc2c(cc1OC)-c1c3cc(O)ccc3nn[n+]1CC2	> 100 µM
Nc1cccc2cc(Cl)cnc12	> 100 µM
CC(C)c1ccc(/C=C2/C=C(c3ccc4ccccc4c3)OC2=O)cc1	> 85.3 µM
CC(=O)Nc1ccc(-c2nnc(SCC(=O)Nc3ccc([N+](=O)[O-])cc3)o2)cc1	> 100 µM
COc1ccc(/C=C2\CCC(C)C3=C2NC(=S)NC3c2ccc(OC)c(OC)c2)cc1OC (stereo not given)	> 31.6 µM
N#CC1=C(N)N(c2ccccc2)C(c2ccco2)C1(C#N)C#N (stereo not given)	37.5 µM
C=C1C(=O)C23CC1CCC2C12CO[C@@H]4OCC(C)(CC[C@@H]1OC3=O)C42 (stereo not given in full)	> 100 µM
CCCNC1=C2CC(C)CC(OC)[C@@H](O)[C@H](C)/C=C(\C)C(OC(N)=O)C(OC)/C=C\C=C(/C)C(=O)NC(=CC1=O)C2=O (stereo not given in full)	> 100 µM
O=[N+]([O-])C(=C1NCCN1)/C(Cl)=C(\Cl)Br	31.2 µM
COC1=CC(c2ccc[nH]2)=N/C1=C\c1[nH]c(C)c(C(=O)OC(C)C)c1C	1.14 µM
Cc1ccc(SCC(CSCCO)OCn2cnc3c2NC(N)=NC32OCCO2)cc1 (stereo not given)	> 100 µM
COc1cc(Cc2cnc(/N=C3\C(=O)N(CN4CCN(c5c(F)cc6c(=O)c(C(=O)O)cn(C7CC7)c6c5OC)CC4C)c4ccc(F)cc43)nc2N)cc(OC)c1OC (stereo not given)	> 100 µM
COc1c(C)c(C/C=C(\C)CCCCO[Si](c2ccccc2)(c2ccccc2)C(C)(C)C)c(OC)c(OC)c1OC	> 46.4 µM
Cc1cc(I)cc(CN(C)CCCCN2CCCCC2)c1O	17.1 µM
COC(=O)[C@@H](NC(=O)CNC(=O)[C@H]1CCCN1C(=O)C(Cc1ccccc1)NC(=S)Nc1cc(C(F)(F)F)cc(C(F)(F)F)c1)C(C)C (stereo not given in full) (X6-[ξF][dP]GV-OMe)	30.1 µM
Clc1ccc(/C=C/c2nc3ccccc3s2)cc1Cl	> 100 µM
NC(=O)c1sc(-n2cnc3ccccc32)cc1OCc1ccccc1Br	> 25 µM
O=C(CCC(=O)c1ccc(Cl)cc1)NO	> 100 µM
O=C1CCC(=O)N1n1c(Cc2ccccc2)n[nH]c1=O	> 100 µM
CC(C)=CC(=O)C1c2cccc(O)c2C(=O)c2c(O)cc(C)cc21 (stereo not given)	> 100 µM
O=C1C(Cl)=C(Nc2cccc(Cl)c2)C(=O)N1Cc1ccc(Cl)cc1Cl	> 87.5 µM
COC1=CC(=O)c2nc(-c3ccncc3)[nH]c2C1=O	> 100 µM
CCCCCCCCCCCCCCCCCC(CCCCCCCCCCCCCCCCC)OP(=O)(O)O	> 100 µM
CCOC(=O)N1CCC2(CC1)C[C@](C)(C(C)=O)C(C)O2 (stereo not given in full)	> 100 µM
CCOC(=O)C1=C(C)NC(=S)NC1c1ccccc1 (stereo not given)	> 75.1 µM
CCNC(=S)N/N=C/c1cc([N+](=O)[O-])ccc1O	> 100 µM
CNC(=O)C(C)C1CCC2(C)C=CC(=O)C(C)=C2C1O (stereo not given)	> 100 µM
CC1=CC2C(O1)C1C(=O)C=CC(=O)C1=CC2[N+](=O)[O-] (stereo not given)	> 100 µM

The reported numbers originate from PubChem BioAssay (NCI).
